Property: viability at 50 µM; scope: individual compounds
Assay: Cytotoxicity against african green monkey COS1 cells assessed as cell survival at 50 uM relative to control
Type: cell-based
Details: chlorocebus aethiops, COS-1 cells; read-out: Survival
Return type: number; implicit unit %.

Worked cases, viability at 50 µM given:
{"columns": ["SMI", "OBSERVED_PROPERTY", "OUTPUT_UNIT", "MEASURED_NUMBER"],
 "data": [
  ["CC(C)(C)OC(=O)NCCCn1c2c(c3ccc([N+](=O)[O-])cc3c1=O)C(=O)c1ccccc1-2", "viability at 50 µM", "%", 106],
  ["CC(=O)Nc1ccc2c3c(n(CCCN)c(=O)c2c1)-c1ccccc1C3=O", "viability at 50 µM", "%", 74.5],
  ["CNc1ccc2c3c(n(CCCNC(=O)OC(C)(C)C)c(=O)c2c1)-c1ccccc1C3=O", "viability at 50 µM", "%", 94.8],
  ["CC(=O)Nc1ccc2c3c(n(CCCO)c(=O)c2c1)-c1ccccc1C3=O", "viability at 50 µM", "%", 90.6]
]}

Please turn your attention to the following entry.
For record CC(=O)NCCCn1c2c(c3ccc(N)cc3c1=O)C(=O)c1ccccc1-2 the listed viability at 50 µM is 75.2

* * *

Property: viability at 50 µM; scope: individual compounds
Assay: Cytotoxicity against african green monkey COS1 cells assessed as cell survival at 50 uM relative to control
Assay type: cell-based
Details: chlorocebus aethiops, COS-1 cells; read-out: Survival

{"columns": ["SMI", "viability at 50 µM"],
 "data": [
  ["CNCCCn1c2c(c3ccc([N+](=O)[O-])cc3c1=O)C(=O)c1ccccc1-2", "< 50%"],
  ["CN(C)c1ccc2c3c(n(CCCN)c(=O)c2c1)-c1ccccc1C3=O", "< 50%"]
]}

Please turn your attention to the following entry.
For record NCCCn1c2c(c3ccc([N+](=O)[O-])cc3c1=O)C(=O)c1ccccc1-2 the listed viability at 50 µM is < 50%
